Just for reference, ChEMBL document CHEMBL1152129 is where these values come from.

- Test target: Amine oxidase [flavin-containing] B (Homo sapiens)
- Sequence (P27338 whole entry): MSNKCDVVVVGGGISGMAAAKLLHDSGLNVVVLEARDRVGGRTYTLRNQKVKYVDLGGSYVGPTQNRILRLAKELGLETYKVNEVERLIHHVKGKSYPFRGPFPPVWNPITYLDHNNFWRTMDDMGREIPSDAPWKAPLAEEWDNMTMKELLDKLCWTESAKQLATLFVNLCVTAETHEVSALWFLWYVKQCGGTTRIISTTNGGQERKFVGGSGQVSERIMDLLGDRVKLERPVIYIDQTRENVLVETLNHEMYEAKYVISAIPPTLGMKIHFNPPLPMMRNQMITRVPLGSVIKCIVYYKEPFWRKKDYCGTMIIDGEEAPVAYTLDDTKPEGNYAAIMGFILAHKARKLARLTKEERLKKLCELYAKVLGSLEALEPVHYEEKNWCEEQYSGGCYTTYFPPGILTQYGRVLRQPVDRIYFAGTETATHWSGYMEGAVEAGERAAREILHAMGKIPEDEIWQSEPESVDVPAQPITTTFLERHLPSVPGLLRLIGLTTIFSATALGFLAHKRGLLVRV
Outcome measure: pIC50
Quick note: pIC50 values are minus log10 of concentrations in mol/L.

Use these answered entries as a reference point.
INSERT INTO measurements (compound, test_target, result_value) VALUES
  ('COc1c2occc2cc2cc(N)c(=O)oc12', 'Amine oxidase [flavin-containing] B (Homo sapiens)', 4.78),
  ('Cc1cc(=O)oc2c(C)c(OC3CCCCC3=O)ccc12 (stereo not drawn)', 'Amine oxidase [flavin-containing] B (Homo sapiens)', 5.41),
  ('Cc1cc(=O)oc2cc(OC3CCCC3=O)ccc12 (stereo not drawn)', 'Amine oxidase [flavin-containing] B (Homo sapiens)', 5.25),
  ('COc1c(OCC(C)=O)ccc2c1oc(=O)c1ccccc12', 'Amine oxidase [flavin-containing] B (Homo sapiens)', 5.03),
  ('Cc1cc(=O)oc2c(C)c3oc4c(c3cc12)CCC4', 'Amine oxidase [flavin-containing] B (Homo sapiens)', 4.14),
  ('COc1c(OCC(C)=O)ccc2c3c(c(=O)oc12)CCCC3', 'Amine oxidase [flavin-containing] B (Homo sapiens)', 4.92);

Q: What value of pIC50 has been recorded for this entry: "CC(=O)COc1ccc2c(oc(=O)c3ccccc32)c1C"
Ans: 4.55

Q: Now consider "Cc1cc(=O)oc2cc(O)ccc12" .
Ans: 4.09

Q: // same read-out, input: "COc1cc(OCC(C)=O)cc2oc(=O)ccc12"
Ans: 4.36
